Assignment: determine reported Activity for the given compounds.
- TARGET_OF_ASSAY: Adenosine receptor A1 (Rattus norvegicus) (UniProt P25099)
- Sequence (P25099 whole entry): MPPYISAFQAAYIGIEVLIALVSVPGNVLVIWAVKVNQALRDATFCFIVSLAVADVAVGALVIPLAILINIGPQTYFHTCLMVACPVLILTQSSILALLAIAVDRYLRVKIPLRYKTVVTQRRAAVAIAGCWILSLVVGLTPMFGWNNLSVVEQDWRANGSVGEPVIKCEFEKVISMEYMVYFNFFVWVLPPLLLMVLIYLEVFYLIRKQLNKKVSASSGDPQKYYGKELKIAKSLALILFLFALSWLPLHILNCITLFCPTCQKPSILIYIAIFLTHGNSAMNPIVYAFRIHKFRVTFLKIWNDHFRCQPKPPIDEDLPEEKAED
- TEST_DETAILS: Agonist activity at adenosine A1 receptor in embryonic rat H9C2 cell model of ischemia assessed as reduction of cell death at 10 nM
- Type: functional, cell-based
- Parameters: scale not given: the % may be the effect or the level left
# value in %; strip the unit string

Q) Using the record for CC1(C)CC(CNc2ncnc3c2ncn3[C@@H]2O[C@H](CO)[C@@H](O)[C@H]2O)C(C)(C)N1[O] (some centres undefined) , state its measured Activity.
A) 84.8

Q) Tell me Activity reported for OC[C@H]1O[C@@H](n2cnc3c(NC4CCCC4)ncnc32)[C@H](O)[C@@H]1O
A) 86.2

Q) Output measured Activity for this item: CC(C)(C)c1cc(C(=O)NCCc2ccc(Nc3ncnc4c3ncn4[C@@H]3O[C@H](CO)[C@@H](O)[C@H]3O)cc2)cc(C(C)(C)C)c1O
A) 73.2

Q) Please give measured Activity of the following entry: CC1(C)c2ccc(C(=O)NCCc3ccc(Nc4ncnc5c4ncn5[C@@H]4O[C@H](CO)[C@@H](O)[C@H]4O)cc3)cc2C(C)(C)N1[O]
A) 54.7

====

- TARGET_OF_ASSAY: Adenosine receptor A2a (Homo sapiens, UniProt P29274)
- Sequence (P29274 whole entry): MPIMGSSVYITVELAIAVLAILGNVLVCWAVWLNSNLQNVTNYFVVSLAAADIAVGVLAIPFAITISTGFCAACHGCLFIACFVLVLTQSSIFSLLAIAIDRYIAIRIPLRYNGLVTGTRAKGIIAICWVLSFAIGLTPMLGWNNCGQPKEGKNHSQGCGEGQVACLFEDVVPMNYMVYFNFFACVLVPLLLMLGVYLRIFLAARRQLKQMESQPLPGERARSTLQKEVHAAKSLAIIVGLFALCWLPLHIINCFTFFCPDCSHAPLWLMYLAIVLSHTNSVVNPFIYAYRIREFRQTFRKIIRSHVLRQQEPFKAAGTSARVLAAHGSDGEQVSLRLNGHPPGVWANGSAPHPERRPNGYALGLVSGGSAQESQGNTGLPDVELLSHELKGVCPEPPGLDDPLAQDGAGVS
- TEST_DETAILS: Binding affinity to adenosine A2A receptor
pKi: −log10 of the molar value.
MEASURE_NAME: pKi

Q) Please list pKi recorded for the compound CC1(C)CC(CNc2ncnc3c2ncn3[C@@H]2O[C@H](CO)[C@@H](O)[C@H]2O)C(C)(C)N1[O] (some centres not stated)
A) < 5.00

Q) Hello, please tell me recorded pKi for this one: CC1(C)NC(C)(C)c2cc(Nc3ncnc4c3ncn4[C@@H]3O[C@H](CO)[C@@H](O)[C@H]3O)ccc21
A) < 5.00

Q) Specify reported pKi for the compound shown: CC1(C)c2ccc(C(=O)NCCc3ccc(Nc4ncnc5c4ncn5[C@@H]4O[C@H](CO)[C@@H](O)[C@H]4O)cc3)cc2C(C)(C)N1[O]
A) < 5.00

Q) Provide measured pKi value, entry: CC1(C)c2ccc(C(=O)NCCCCCCNc3ncnc4c3ncn4[C@@H]3O[C@H](CO)[C@@H](O)[C@H]3O)cc2C(C)(C)N1[O]
A) < 5.00

Q) Find the measured pKi of CC1(C)CC(Nc2ncnc3c2ncn3[C@@H]2O[C@H](CO)[C@@H](O)[C@H]2O)CC(C)(C)N1[O] and report it.
A) < 5.00

Q) Kindly indicate its recorded pKi. Item: CC1(C)c2ccc(Nc3ncnc4c3ncn4[C@@H]3O[C@H](CO)[C@@H](O)[C@H]3O)cc2C(C)(C)N1[O]
A) < 5.00

Q) Tell me its pKi given CC(C)(C)c1cc(C(=O)NCCCCCCNc2ncnc3c2ncn3[C@@H]2O[C@H](CO)[C@@H](O)[C@H]2O)cc(C(C)(C)C)c1O as the entry.
A) < 5.00

====

Here we list compounds with their recorded Ki when tested on UniProt:P29275.

Q) Dear colleague, please send me the reported Ki for CC1(C)CC(Nc2ncnc3c2ncn3[C@@H]2O[C@H](CO)[C@@H](O)[C@H]2O)CC(C)(C)N1[O] when you can.
A) > 10 µM

Q) For the compound CC(C)(C)c1cc(C(=O)NCCCCCCNc2ncnc3c2ncn3[C@@H]2O[C@H](CO)[C@@H](O)[C@H]2O)cc(C(C)(C)C)c1O , report Ki.
A) > 10 µM

Q) Write down Ki measured for item CC1(C)c2ccc(Nc3ncnc4c3ncn4[C@@H]3O[C@H](CO)[C@@H](O)[C@H]3O)cc2C(C)(C)N1[O]
A) > 10 µM

====

- TARGET_OF_ASSAY: Adenosine receptor A3 (Homo sapiens)
- Sequence (P0DMS8 whole entry): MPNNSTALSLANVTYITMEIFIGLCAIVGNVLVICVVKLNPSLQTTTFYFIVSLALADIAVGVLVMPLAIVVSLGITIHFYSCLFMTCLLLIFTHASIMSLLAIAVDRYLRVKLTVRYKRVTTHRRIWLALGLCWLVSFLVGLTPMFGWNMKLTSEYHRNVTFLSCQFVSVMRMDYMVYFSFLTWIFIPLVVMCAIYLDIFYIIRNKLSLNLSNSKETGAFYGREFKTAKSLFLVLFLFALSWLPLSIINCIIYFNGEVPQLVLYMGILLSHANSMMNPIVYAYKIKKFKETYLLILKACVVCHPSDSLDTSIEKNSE
Kindly supply the reported pKi values for the records listed here.
Remember the convention: pKi equals -log10 of concentration in molar.

Q) Return value of pKi for input CC1(C)c2ccc(C(=O)NCCCCCCNc3ncnc4c3ncn4[C@@H]3O[C@H](CO)[C@@H](O)[C@H]3O)cc2C(C)(C)N1[O] , no commentary.
A) 7.05

Q) Please supply the value of reported pKi for the item CC1(C)NC(C)(C)c2cc(Nc3ncnc4c3ncn4[C@@H]3O[C@H](CO)[C@@H](O)[C@H]3O)ccc21
A) 6.55

Q) Report pKi, nothing else, for this molecule: CC1(C)c2ccc(Nc3ncnc4c3ncn4[C@@H]3O[C@H](CO)[C@@H](O)[C@H]3O)cc2C(C)(C)N1[O]
A) 6.10

Q) Please give measured pKi of the following entry: CC1(C)CC(Nc2ncnc3c2ncn3[C@@H]2O[C@H](CO)[C@@H](O)[C@H]2O)CC(C)(C)N1[O]
A) 5.07

Q) Let me know recorded pKi for CC1(C)c2ccc(C(=O)NCCc3ccc(Nc4ncnc5c4ncn5[C@@H]4O[C@H](CO)[C@@H](O)[C@H]4O)cc3)cc2C(C)(C)N1[O] , thanks.
A) 6.64

Q) Name the recorded pKi of the molecule listed here: CC1(C)CC(CNc2ncnc3c2ncn3[C@@H]2O[C@H](CO)[C@@H](O)[C@H]2O)C(C)(C)N1[O] (stereo partly specified)
A) 4.67

====

Field: Ki. Provide a value for each of the molecules that follow.
Write the value in µM as a bare number.

Q) Report measured Ki on Adenosine receptor A2b (Homo sapiens, UniProt P29275); entry: CC1(C)c2ccc(C(=O)NCCc3ccc(Nc4ncnc5c4ncn5[C@@H]4O[C@H](CO)[C@@H](O)[C@H]4O)cc3)cc2C(C)(C)N1[O]
Sequence (P29275 whole entry): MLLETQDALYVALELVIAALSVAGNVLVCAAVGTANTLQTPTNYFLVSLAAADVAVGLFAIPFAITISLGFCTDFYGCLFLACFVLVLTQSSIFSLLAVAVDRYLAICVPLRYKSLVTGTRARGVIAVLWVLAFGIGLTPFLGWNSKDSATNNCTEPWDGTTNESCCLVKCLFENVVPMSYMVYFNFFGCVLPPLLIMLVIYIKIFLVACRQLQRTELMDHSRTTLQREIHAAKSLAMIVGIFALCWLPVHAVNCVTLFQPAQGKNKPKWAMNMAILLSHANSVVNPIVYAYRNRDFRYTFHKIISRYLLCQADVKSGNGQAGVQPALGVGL
A) 1.45

Q) // fetch Ki for CC(C)(C)c1cc(C(=O)NCCc2ccc(Nc3ncnc4c3ncn4[C@@H]3O[C@H](CO)[C@@H](O)[C@H]3O)cc2)cc(C(C)(C)C)c1O ; system: Adenosine receptor A2b (Homo sapiens, UniProt P29275)
A) 8.58

====

- TARGET_OF_ASSAY: UniProtKB P30542
- Sequence (P30542 whole entry): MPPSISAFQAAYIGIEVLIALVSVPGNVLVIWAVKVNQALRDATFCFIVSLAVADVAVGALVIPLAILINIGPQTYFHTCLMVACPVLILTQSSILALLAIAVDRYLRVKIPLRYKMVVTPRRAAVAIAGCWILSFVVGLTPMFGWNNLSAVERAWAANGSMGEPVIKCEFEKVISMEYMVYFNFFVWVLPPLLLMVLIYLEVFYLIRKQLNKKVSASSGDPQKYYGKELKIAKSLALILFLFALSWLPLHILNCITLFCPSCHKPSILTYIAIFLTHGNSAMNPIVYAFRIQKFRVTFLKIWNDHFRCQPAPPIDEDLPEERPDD
# note: exactly 0.03 µM is not below, so it is False; use True for Ki strictly under it

Q) State whether 0.03 µM exceeds Ki recorded for CC1(C)c2ccc(C(=O)NCCCCCCNc3ncnc4c3ncn4[C@@H]3O[C@H](CO)[C@@H](O)[C@H]3O)cc2C(C)(C)N1[O] .
A) True

Q) Check if Ki falls below 0.03 µM for CC1(C)c2ccc(C(=O)NCCc3ccc(Nc4ncnc5c4ncn5[C@@H]4O[C@H](CO)[C@@H](O)[C@H]4O)cc3)cc2C(C)(C)N1[O] .
A) True

Q) Dear colleague, could you confirm whether Ki of CC1(C)c2ccc(Nc3ncnc4c3ncn4[C@@H]3O[C@H](CO)[C@@H](O)[C@H]3O)cc2C(C)(C)N1[O] falls below 0.03 µM? Thanks.
A) False

Q) In plain terms, does CC1(C)CC(Nc2ncnc3c2ncn3[C@@H]2O[C@H](CO)[C@@H](O)[C@H]2O)CC(C)(C)N1[O] come in under 0.03 µM for Ki?
A) False

Q) Strictly below 0.03 µM: is that where Ki of CC(C)(C)c1cc(C(=O)NCCc2ccc(Nc3ncnc4c3ncn4[C@@H]3O[C@H](CO)[C@@H](O)[C@H]3O)cc2)cc(C(C)(C)C)c1O sits?
A) False

Q) Dear reviewer, please state whether CC(C)(C)c1cc(C(=O)NCCCCCCNc2ncnc3c2ncn3[C@@H]2O[C@H](CO)[C@@H](O)[C@H]2O)cc(C(C)(C)C)c1O has Ki strictly beneath 0.03 µM.
A) False

Q) Criterion: Ki strictly below 0.03 µM. Is it met by CC1(C)CC(CNc2ncnc3c2ncn3[C@@H]2O[C@H](CO)[C@@H](O)[C@H]2O)C(C)(C)N1[O] (some centres not stated) ?
A) False
